TARGET OR SYSTEM: DrOTOP1 (Danio rerio)
Construct: A previously generated codon-optimized full-length DrOTOP1[8]; (UniProt: Q7ZWK8) construct; expressed in transfected cells; host or cells: HEK-293 (CRL-1573, ATCC)
Sequence (Q7ZWK8 1-586): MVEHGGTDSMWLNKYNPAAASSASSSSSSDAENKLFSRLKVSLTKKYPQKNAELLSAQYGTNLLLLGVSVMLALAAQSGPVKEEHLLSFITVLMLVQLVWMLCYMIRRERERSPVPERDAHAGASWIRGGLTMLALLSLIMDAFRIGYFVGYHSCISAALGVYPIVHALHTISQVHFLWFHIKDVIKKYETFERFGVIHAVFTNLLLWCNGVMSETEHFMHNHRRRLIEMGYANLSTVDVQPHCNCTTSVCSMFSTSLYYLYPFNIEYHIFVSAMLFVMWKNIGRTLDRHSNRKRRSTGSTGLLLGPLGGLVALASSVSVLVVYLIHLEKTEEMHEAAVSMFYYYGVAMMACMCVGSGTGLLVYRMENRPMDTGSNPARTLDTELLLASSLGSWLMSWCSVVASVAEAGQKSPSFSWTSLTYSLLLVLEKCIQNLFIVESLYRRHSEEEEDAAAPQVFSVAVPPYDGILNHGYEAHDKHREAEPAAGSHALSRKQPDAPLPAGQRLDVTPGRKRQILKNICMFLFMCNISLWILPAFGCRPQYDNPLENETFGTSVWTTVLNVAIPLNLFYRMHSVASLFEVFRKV
TEST SUMMARY: Whole-cell patch-clamp, inhibition of acid-evoked currents, WT DrOTOP1 expressed in HEK-293 cells
Assay type: cell-based, zebrafish (Danio rerio)
STATED CONDITIONS: pH 5.0; WT DrOTOP1
The molecules listed here are annotated with their pIC50.
Lab note: report pIC50 as minus log10 of the concentration in molar units, number only.

SMILES: O=C(/C(=N\O)c1ccccc1)c1ccccc1
pIC50: 4.12

pIC50 measured on C=C(C)COc1ccccc1NC(=O)c1nc[nH]c1C = 4.90
